- targetDesc: Lysine-specific demethylase 5B (Homo sapiens)
- testSummary: Primary screen for KDM5B Histone Demethylases FDH-coupled qHTS; also: nearly all actives have a fitted effect of over 70% in size
- studyConditions: FDH-coupled NADH fluorescence (FDH is formaldehyde dehydrogenase); series mostly up to 57.7 µM
- Text: Assay Submitter (PI): Qin Yan, Ph.D. (Yale University) and Xiaodong Cheng, Ph.D. (MD Anderson) This project was funded as part of the NCI NEXT Program and Chemical Biology Consortium (CBC) The histone demethylases, KDM5A and KDM5B catalyze the demethylation of lysine 4 on histone H3 (H3K4me3/2). They are overexpressed in a variety of cancers and have been implicated in cancer cell growth, metastasis, drug resistance, and tumor growth. […]
Out of some 220,000 compounds screened, about 5,700 (2.6%) were called active. Roughly 18% stayed inconclusive and do not appear here. Calls follow the shape of the dose curve; as a rule, active = well fitted inhibition curve with a large enough effect; inconclusive = small, poorly fitted or top-dose-only effect; inactive = no such curve, though single readings can be large or run the other way. What follows is part of a selection rich in actives, with near analogues and random picks from the rest.
The reply should be one of these categories: t = active, f = inactive

* COc1ccc(-c2onc(C)c2C(=O)NCc2ccc3c(c2)OCO3)cc1 | f
* COc1ccc(OC2CCN(C(C)=O)CC2)c(C(=O)NCCc2ccccc2OC)c1 | t
* Cc1cc(C)c(-c2cc(C(=O)Nc3ccccc3C(F)(F)F)[nH]n2)c(O)c1 | f

Could you kindly confirm the outcome this assay logged for CC(C)(C)C(=O)NCCCC(=O)NCc1cccnc1 ?
f
